Where do the numbers come from? From paper PMC4476799.

Tested on: cancer cell lines from the cancer cell line encyclopedia (CCLE)
Experiment: Cell line profiling (CLiP) proliferation experiment
Type: cell-based
Details: Homo sapiens, ZR-75-30, ZR-75-30 (breast); read-out: Crossing Point
Procedure: Compound profiling experiment and data analysis was performed as previously described. Data was imported and plotted using the Tibco Spotfire DXP application. Lines were categorized as sensitive, intermediate and refractory as follows: Amax<-40 & Inflection Point <2 ~ Sensitive, Amax>-20 & Inflection Point >10 ~ Refractory, all else were called Intermediate. Cancer Cell line HG-U133 Plus 2 data was processed and normalized as described. […]
assay-endpoint: IC50

CC(C)[C@@]12C[C@@H](O)[C@@](C)(O1)[C@@H]1CC[C@@H](C)[C@H]1[C@@H]2OC(=O)/C=C/c1ccccc1 [Englerin B] tested on cancer cell lines from the cancer cell line encyclopedia (CCLE) gave IC50: > 30 µM

----------
Test system: cancer cell lines from the cancer cell line encyclopedia (CCLE)
Experiment: Cell line profiling (CLiP) proliferation experiment
Assay type: cell-based
Conditions: SUM52PE, SUM52PE (breast, NS); read-out: Crossing Point
pIC50: −log10 of the molar value.
assay-endpoint: pIC50

The reported pIC50 of the compound CC(C)[C@@]12C[C@@H](O)[C@@](C)(O1)[C@@H]1CC[C@@H](C)[C@H]1[C@@H]2OC(=O)/C=C/c1ccccc1 was < 4.52

----------
Tested on: cancer cell lines from the cancer cell line encyclopedia (CCLE)
Experiment: Cell line profiling (CLiP) proliferation experiment
Assay type: cell-based
Settings: IGR-39, cell line IGR-39; read-out: Crossing Point
assay-endpoint: IC50

The reported IC50 of the compound CC(C)[C@@]12C[C@@H](O)[C@@](C)(O1)[C@@H]1CC[C@@H](C)[C@H]1[C@@H]2OC(=O)/C=C/c1ccccc1 [Englerin B] was > 30 µM

----------
Test system: cancer cell lines from the cancer cell line encyclopedia (CCLE)
Test: Cell line profiling (CLiP) proliferation experiment
Assay type: cell-based
Settings: cell line Hs 936.T; read-out: Crossing Point
assay-endpoint: IC50

The reported IC50 of the compound CC(C)[C@@]12C[C@@H](O)[C@@](C)(O1)[C@@H]1CC[C@@H](C)[C@H]1[C@@H]2OC(=O)/C=C/c1ccccc1 was > 30 µM

----------
System: cancer cell lines from the cancer cell line encyclopedia (CCLE)
Test: Cell line profiling (CLiP) proliferation experiment
Assay type: cell-based
Conditions: Homo sapiens, JVM-2, JVM-2; read-out: Inflection Point
assay-endpoint: EC50 (µM)
Output spec: scalar in µM, unitless text.

The reported EC50 of the compound CC(C)[C@@]12C[C@@H](O)[C@@](C)(O1)[C@@H]1CC[C@@H](C)[C@H]1[C@@H]2OC(=O)/C=C/c1ccccc1 was 21

----------
System: cancer cell lines from the cancer cell line encyclopedia (CCLE)
Experiment: Cell line profiling (CLiP) proliferation experiment
Format: cell-based
Conditions: Homo sapiens, A-375, cell line A-375; skin; NS; read-out: Crossing Point
assay-endpoint: IC50

The reported IC50 of the molecule CC(C)[C@@]12C[C@@H](O)[C@@](C)(O1)[C@@H]1CC[C@@H](C)[C@H]1[C@@H]2OC(=O)/C=C/c1ccccc1 was > 30 µM

----------
Test system: cancer cell lines from the cancer cell line encyclopedia (CCLE)
Test: Cell line profiling (CLiP) proliferation experiment
Format: cell-based
Details: Homo sapiens, Lu-99, LU99 (lung); read-out: Inflection Point
assay-endpoint: EC50 (µM)
Output spec: scalar in µM, unitless text.

The reported EC50 of the compound CC(C)[C@@]12C[C@@H](O)[C@@](C)(O1)[C@@H]1CC[C@@H](C)[C@H]1[C@@H]2OC(=O)/C=C/c1ccccc1 was 12.9
